- experiment.notes: Pharmacokinetic studies in vivo (single compound)
- Parameters: species or system CD-1 male mice
- assay.setup: male, mouse, plasma; oral, 5 mg/kg, CD-1 mice
- Protocol: Experiment 4: Pharmacokinetic Studies In Vivo […] On the day of the experiment, animals in the intravenous group were given a single injection of the corresponding compound through the tail vein with a volume of 5 mL/kg; the oral group was given the corresponding compound by a single gavage with a volume of 10 mL/kg. The animals were weighed before administration, and the administration volume was calculated according to the body weight. […]
property.name: Cmax (nM)

1. Cc1cccc(-c2nn3c(c2-c2ccnc4ccc(C(N)=O)cc24)CCC3)n1 [Compound A, Galunisertib, reference compound]; 1840

----------
- experiment.notes: Pharmacokinetic studies in vivo (single compound)
- Parameters: species or system CD-1 male mice
- assay.setup: male, mouse, plasma; oral, 5 mg/kg, CD-1 mice
property.name: half-life (h)

1. Cc1cccc(-c2nn3c(c2-c2ccnc4ccc(C(N)=O)cc24)CCC3)n1 [Compound A, Galunisertib, reference compound]; 1.1

----------
- experiment.notes: Pharmacokinetic studies in vivo (single compound)
- Parameters: species or system CD-1 male mice
- assay.setup: male, mouse, plasma, iv; injection, 1 mg/kg, CD-1 mice; read-out: Vdss
property.name: Vd (L/kg)

1. Cc1cccc(-c2nn3c(c2-c2ccnc4ccc(C(N)=O)cc24)CCC3)n1 [Compound A, Galunisertib, reference compound]; 1.31
2. Cc1cc(Oc2ccnc(Nc3cccc(C(N)=O)c3)c2)n(C2CCOCC2)n1 [Compound 14]; 1.64

----------
- experiment.notes: Pharmacokinetic studies in vivo (single compound)
- Set-up: species or system CD-1 male mice
- assay.setup: male, mouse, plasma, iv; injection, 1 mg/kg, CD-1 mice
Measured clearance values are reported for all entries that follow.
property.name: clearance (mL/min/kg)

1) Cc1cc(Oc2ccnc(Nc3cccc(C(N)=O)c3)c2)n(C2CCOCC2)n1 [Compound 14]; 31.5
2) Cc1cccc(-c2nn3c(c2-c2ccnc4ccc(C(N)=O)cc24)CCC3)n1 [Compound A, Galunisertib, reference compound]; 56

----------
Measured AUC values are reported for all entries that follow.
- experiment.notes: Drug concentration in tumor tissue and plasma AUC in the CT26 tumor model study
- Type: in vivo, BALB/c mice
- assay.setup: female, BALB/c, mouse; 50 mg/kg, twice a day, oral; plasma
property.name: AUC (µM·h)

1. Cc1cc(Oc2ccnc(Nc3cccc(C(N)=O)c3)c2)n(C2CCOCC2)n1 [Compound 14]; 30.1
2. Cc1cccc(-c2nn3c(c2-c2ccnc4ccc(C(N)=O)cc24)CCC3)n1 [Compound A, Galunisertib, reference compound]; 6.17

----------
- experiment.notes: Pharmacokinetics study of cassette drug administration in vivo
- Set-up: species or system CD-1 male mice
- assay.setup: male, mouse, plasma, iv, injection (1 mg/kg), CD-1 mice, read-out: Vdss
property.name: Vd (L/kg)

1) Cc1cccc(-c2nn3c(c2-c2ccnc4ccc(C(N)=O)cc24)CCC3)n1 [Compound A, Galunisertib, reference compound]; 0.679
2) Cc1cc(Oc2ccnc(Nc3cccc(C(N)=O)c3)c2)n(C2CCOCC2)n1; 2.39
3) Cc1cccc(-n2nc(C)cc2Oc2ccnc(Nc3cccc(C(N)=O)c3)c2)n1; 1.05

----------
Measured bioavailability values are reported for all entries that follow.
- experiment.notes: Pharmacokinetics study of cassette drug administration in vivo
- Parameters: species or system CD-1 male mice
- assay.setup: male, mouse, plasma, oral (1.5 mg/kg) vs injection (1 mg/kg), CD-1 mice, read-out: F (bioavailability)
property.name: bioavailability (%)

1. Cc1cccc(-n2nc(C)cc2Oc2ccnc(Nc3cccc(C(N)=O)c3)c2)n1; 54.6
2. Cc1cccc(-c2nn3c(c2-c2ccnc4ccc(C(N)=O)cc24)CCC3)n1 [Compound A, Galunisertib, reference compound]; 34.9
3. Cc1cc(Oc2ccnc(Nc3cccc(C(N)=O)c3)c2)n(C2CCOCC2)n1; 75.9
